Tested target: Saccharomyces cerevisiae α-glucosidase enzyme (EC. 3. 2. 1. 20) (Saccharomyces cerevisiae)
Sequence (P38158 whole entry): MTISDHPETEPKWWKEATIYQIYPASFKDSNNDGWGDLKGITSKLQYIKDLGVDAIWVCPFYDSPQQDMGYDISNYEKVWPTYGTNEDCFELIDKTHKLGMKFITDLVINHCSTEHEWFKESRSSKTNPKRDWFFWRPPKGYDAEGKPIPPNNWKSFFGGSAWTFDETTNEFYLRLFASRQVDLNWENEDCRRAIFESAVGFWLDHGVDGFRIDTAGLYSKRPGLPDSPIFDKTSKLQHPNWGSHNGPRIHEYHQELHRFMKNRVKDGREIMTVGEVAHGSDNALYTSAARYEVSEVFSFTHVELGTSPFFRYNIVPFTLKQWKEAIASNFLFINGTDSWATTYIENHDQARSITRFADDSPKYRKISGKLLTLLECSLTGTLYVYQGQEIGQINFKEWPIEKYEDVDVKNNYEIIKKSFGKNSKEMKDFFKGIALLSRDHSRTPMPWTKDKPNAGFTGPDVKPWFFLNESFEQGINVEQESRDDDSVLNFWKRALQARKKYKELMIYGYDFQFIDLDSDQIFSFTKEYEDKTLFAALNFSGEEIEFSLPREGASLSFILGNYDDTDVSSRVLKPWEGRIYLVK
Measurement protocol: In vitro α-glucosidase inhibitory activity
Format: biochemical
Label satisfied when IC50 is strictly below 200 µM; at or above that, label not satisfied.

{"columns": ["Compound", "Tested target", "Class assignment"],
 "data": [
  ["Cc1cccc(NC(=O)CSc2nc3ccccc3cc2-c2nc3ccccc3s2)c1C [Compound 8e]", "Saccharomyces cerevisiae α-glucosidase enzyme (EC. 3. 2. 1. 20) (Saccharomyces cerevisiae)", "satisfied"],
  ["Cc1ccc(CNC(=O)CSc2nc3ccccc3cc2-c2nc3ccccc3s2)cc1 [Compound 8r]", "Saccharomyces cerevisiae α-glucosidase enzyme (EC. 3. 2. 1. 20) (Saccharomyces cerevisiae)", "satisfied"],
  ["Cc1ccccc1NC(=O)CSc1nc2ccccc2cc1-c1nc2ccccc2s1 [Compound 8b]", "Saccharomyces cerevisiae α-glucosidase enzyme (EC. 3. 2. 1. 20) (Saccharomyces cerevisiae)", "satisfied"],
  ["O=C(CSc1nc2ccccc2cc1-c1nc2ccccc2s1)Nc1cccc(Cl)c1 [Compound 8j]", "Saccharomyces cerevisiae α-glucosidase enzyme (EC. 3. 2. 1. 20) (Saccharomyces cerevisiae)", "satisfied"],
  ["O=C(CSc1nc2ccccc2cc1-c1nc2ccccc2s1)NCc1ccccc1 [Compound 8q]", "Saccharomyces cerevisiae α-glucosidase enzyme (EC. 3. 2. 1. 20) (Saccharomyces cerevisiae)", "not satisfied"],
  ["O=C(CSc1nc2ccccc2cc1-c1nc2ccccc2s1)Nc1ccc(Br)cc1 [Compound 8l]", "Saccharomyces cerevisiae α-glucosidase enzyme (EC. 3. 2. 1. 20) (Saccharomyces cerevisiae)", "satisfied"],
  ["Cc1cccc(C)c1NC(=O)CSc1nc2ccccc2cc1-c1nc2ccccc2s1 [Compound 8f]", "Saccharomyces cerevisiae α-glucosidase enzyme (EC. 3. 2. 1. 20) (Saccharomyces cerevisiae)", "not satisfied"],
  ["O=C(CSc1nc2ccccc2cc1-c1nc2ccccc2s1)Nc1cccc2ccccc12 [Compound 8p]", "Saccharomyces cerevisiae α-glucosidase enzyme (EC. 3. 2. 1. 20) (Saccharomyces cerevisiae)", "satisfied"]
]}
